- measurement.target: PTGER4 (EP4) (Homo sapiens, UniProt P35408)
- Sequence (P35408 whole entry): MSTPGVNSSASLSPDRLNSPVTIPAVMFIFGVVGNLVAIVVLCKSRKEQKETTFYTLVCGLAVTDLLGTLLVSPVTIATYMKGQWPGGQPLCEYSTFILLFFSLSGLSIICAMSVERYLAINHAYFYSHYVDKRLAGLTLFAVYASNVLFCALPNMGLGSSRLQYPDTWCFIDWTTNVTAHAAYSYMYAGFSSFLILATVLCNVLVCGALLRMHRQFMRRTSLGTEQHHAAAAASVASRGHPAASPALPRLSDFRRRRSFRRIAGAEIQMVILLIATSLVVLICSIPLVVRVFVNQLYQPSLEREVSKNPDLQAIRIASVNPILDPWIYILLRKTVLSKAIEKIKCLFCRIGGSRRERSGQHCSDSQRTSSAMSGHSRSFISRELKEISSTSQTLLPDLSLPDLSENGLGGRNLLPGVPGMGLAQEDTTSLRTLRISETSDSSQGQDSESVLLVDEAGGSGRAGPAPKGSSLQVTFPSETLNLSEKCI
- protocol.summary: hEP4 b-Arrestin Assay (PathHunter HEK 293 PTGER4 b-arrestin cells, PGE2 20 nM)
- cond: antagonistic activity, beta-arrestin assay, HEK 293 PTGER4 cells, PGE2 20 nM (EC80); read-out: hEP4 b-arr IC50
value.kind: IC50 (nM)

query.smiles	unit.spec	readout.value
CCOc1cc(-c2cc(NCCc3c(OC)ccc4ccccc34)ncn2)sc1C(=O)NS(C)(=O)=O	nM	24
CCOc1nc(-c2cc(NCCc3c(OC)ccc4ccccc34)ncn2)sc1C(=O)O	nM	40
COc1ccc2ncccc2c1CCNc1cc(-c2cc(C(F)(F)F)c(C(=O)O)s2)ncn1	nM	427
CCOc1cc(-c2cc(NCCc3c(OC)ccc4ccccc34)ncn2)sc1/C=C/C(=O)O	nM	12
CCOc1cc(-c2cc(NCCc3c(OC)ccc4ccccc34)ncn2)ccc1NC(=O)C(=O)O	nM	41
CCc1nc(-c2cc(NCCc3c(OC)ccc4ccccc34)ncn2)sc1C(=O)O	nM	264
CCOc1cc(-c2cc(NCCc3c(OC)ccc4ncccc34)ncn2)sc1C(=O)O	nM	78
CCOc1cc(-c2cc(NCCc3cccc4cc(C)oc34)ncn2)sc1C(=O)O	nM	117
CCOc1cc(-c2cc(NCCc3c(OC)ccc4c3CCO4)ncn2)sc1C(=O)O	nM	114
CCOc1cc(-c2cc(NCCc3c(OC)ccc4c(OC)cccc34)ncn2)sc1C(=O)O	nM	5
CCOc1cc(-c2cc(NCCc3ccc(C)c4ccccc34)ncn2)ccc1CC(=O)O	nM	177
Cn1ccc2c(CCNc3cc(-c4ccc(C(=O)O)c(OC5CCC5)c4)ncn3)cccc21	nM	864
COc1ccc2ccn(C)c2c1CCNc1cc(-c2ccc(C(=O)O)c(SC)c2)ncn1	nM	108
CCOc1cc(-c2cc(NCCc3cccc4c(C)c(C)n(C)c34)ncn2)sc1C(=O)O	nM	164
COc1ccc2ccccc2c1CCNc1cc(-c2ccc(-c3c(O)c(=O)c3=O)cc2)ncn1	nM	1140
CSc1cc(-c2cc(NCCc3cccc4c(C)cccc34)ncn2)ccc1C(=O)O	nM	175
COc1ccc2ncccc2c1CCNc1cc(-c2ccc3c(=O)[nH]n(C)c3c2)ncn1	nM	686
CCCc1cc(-c2cc(NCCc3c(OC)ccc4ccccc34)ncn2)ccc1C(=O)O	nM	308
CCOc1nc(-c2cc(NCCc3c(OC)ccc4ccccc34)ncn2)sc1-c1noc(=O)[nH]1	nM	6
CCOc1cc(-c2cc(NCCc3ccc(C(F)F)c4ccccc34)ncn2)ccc1C(=O)O	nM	91
CCOc1ccc2sccc2c1CCNc1cc(-c2ccc(C(=O)O)c(SC)c2)ncn1	nM	334
CCOc1cc(-c2cc(NCCc3ccc(C(F)F)c4ccccc34)ncn2)sc1C(=O)O	nM	8
CCOc1cc(-c2cc(NCCc3c(Cl)ccc4cccnc34)ncn2)sc1C(=O)O	nM	192
CCOc1cc(-c2cc(NCCc3cccc4c3ccn4C)ncn2)sc1C(=O)O	nM	145
CCOc1cc(-c2cc(NCCc3cccc4cccnc34)ncn2)sc1C(=O)O	nM	293
CSc1cc(-c2cc(NCCc3ccc(Br)c4ccccc34)ncn2)ccc1C(=O)O	nM	149
CCOc1cc(-c2cc(NCCc3c(C#N)ccc4ccccc34)ncn2)sc1C(=O)O	nM	24
CCOc1cc(-c2cc(NCCc3cccc4cc[nH]c34)ncn2)sc1-c1noc(=O)[nH]1	nM	21
CCOc1cc(-c2cc(NCCc3c(C)c(C)cc4ccccc34)ncn2)sc1C(=O)O	nM	52
CSc1cc(-c2cc(NCCc3cccc4c(F)cccc34)ncn2)ccc1C(=O)O	nM	605
CCOc1cc(-c2cc(NCCc3c(OC)ccc4ncccc34)ncn2)sc1-c1noc(=O)[nH]1	nM	10
CCOc1cc(-c2cc(NCCc3cccc4ccn(C)c34)ncn2)sc1C(=O)O	nM	203
CCOc1cc(-c2cc(NCCc3cccc4ccccc34)ncn2)sc1C(=O)O	nM	56
CCOc1cc(-c2cc(NCCc3cc(OC)cc4ccccc34)ncn2)sc1C(=O)O	nM	15
